assay: Solubility: amount of PGMEA necessary for dissolving 100 mg of test compound; format: physicochemical; conditions: 100 mg test compound, 20±5° C., 30 minutes with 30-second strong shaking every 5 minutes; 300 μL or less desirable
Measured Endpoint: PGMEA (amount necessary for dissolving the test compound) (µL)
Reply numerically in µL, unit not repeated.

Q. Query: PGMEA (amount necessary for dissolving the test compound); subject: CCCCOc1ccc2ccc(OCCCC)c([S+](CCCC)CCCC)c2c1.F[P-](F)(F)(F)(F)F [C. Ex. 3, reference compound]
A. 1900

Q. Now this one: CCCCOc1ccc2c(OCCCC)ccc([S+](CCCC)CCCC)c2c1.O=S(=O)([N-]S(=O)(=O)C(F)(F)C(F)(F)C(F)(F)C(F)(F)F)C(F)(F)C(F)(F)C(F)(F)C(F)(F)F [Ex. 3]
A. 100

Q. Input CCCCOc1ccc2ccc(OCCCC)c([S+](CCCC)CCCC)c2c1.O=S(=O)([N-]S(=O)(=O)C(F)(F)F)C(F)(F)F [Ex. 9]
A. 200

Q. CCCCOc1ccc2ccc(OCCCC)c([S+](C(C)C)C(C)C)c2c1.O=S(=O)([N-]S(=O)(=O)C(F)(F)F)C(F)(F)F [Ex. 12] ?
A. 100

Q. Now give it for CCCCOc1ccc2ccc(OCCCC)c([S+](C)C)c2c1.O=S(=O)([N-]S(=O)(=O)C(F)(F)C(F)(F)C(F)(F)C(F)(F)F)C(F)(F)C(F)(F)C(F)(F)C(F)(F)F [Ex. 2] too.
A. 100

Q. Query O=S(=O)([N-]S(=O)(=O)C(F)(F)C(F)(F)C(F)(F)C(F)(F)F)C(F)(F)C(F)(F)C(F)(F)C(F)(F)F.c1ccc([S+](c2ccccc2)c2ccccc2)cc1 [C. Ex. 4, reference compound] next
A. 100

Q. Item: O=S1(=O)[N-]S(=O)(=O)C(F)(F)C(F)(F)C1(F)F.c1ccc([S+](c2ccccc2)c2ccccc2)cc1 [C. Ex. 1, reference compound]
A. 300

Q. Then CCCCOc1ccc2ccc(OCCCC)c([S+](C(C)C)C(C)C)c2c1.O=S(=O)([N-]S(=O)(=O)C(F)(F)C(F)(F)C(F)(F)C(F)(F)F)C(F)(F)C(F)(F)C(F)(F)C(F)(F)F [Ex. 13] ?
A. 100

Q. And the next one, CCCCOc1ccc([S+](CCCC)CCCC)c2c(OCCCC)cccc12.O=S(=O)([N-]S(=O)(=O)C(F)(F)C(F)(F)C(F)(F)C(F)(F)F)C(F)(F)C(F)(F)C(F)(F)C(F)(F)F [Ex. 8] ?
A. 100

Q. Next entry: CCCCOc1ccc2ccc(OCCCC)c([S+](c3ccccc3)c3ccccc3)c2c1.O=S(=O)([N-]S(=O)(=O)C(F)(F)C(F)(F)C(F)(F)C(F)(F)F)C(F)(F)C(F)(F)C(F)(F)C(F)(F)F [C. Ex. 5, reference compound]
A. 100

Q. Another compound: CCCCOc1ccc([S+](CCCC)CCCC)c2c(OCCCC)cccc12.O=S(=O)([N-]S(=O)(=O)C(F)(F)F)C(F)(F)F [Ex. 7]
A. 100

Q. Field entry: CCCCOc1ccc2ccc(OCCCC)c([S+](CCCC)CCCC)c2c1.O=S(=O)([O-])C(F)(F)C(F)(F)C(F)(F)C(F)(F)F [Ex. 6]
A. 100

// provenance: patent US9465288B2
